Tested on: U2OS
ASSAY PROCEDURE: Multiplex assay against U2OS
Assay type: toxicity, cell-based
CONDITION CONTEXT: human, 12 h, 1 µM, compound concentration 1 uM, replicate 1
Non-standard residues stand in square brackets, D forms with d. Residues, ends and D or L forms follow the SMILES beside them.
PROPERTY LABEL: Population Tubulin-Different-Phenotype (%)

O=c1ccc2ccc(OCCCCN3CCN(c4cccc5sccc45)CC3)cc2[nH]1 :: 36
Cc1cc(-c2ccc3c(c2)CC[C@H]3N2CC3(CCN(C(=O)Cc4cn5cc(C)sc5n4)CC3)C2)ncn1 :: 4
CC(C)C[C@@H]1NC(=O)[C@@H](C(C)C)NC(=O)[C@@H]2CCCN2C(=O)[C@@H](CC(=O)O)NC(=O)[C@@H](Cc2c[nH]c3ccccc23)NC1=O [BQ-123] (cyclo(L[dW][dD]P[dV])) :: 0
O=C(Nc1cc(-c2ccccc2)nn1-c1ccccc1F)c1ccc([N+](=O)[O-])cc1 :: 4

Data provenance: ChEMBL document CHEMBL5058577
